All values here come from patent US6407112B1.

target-of-assay: cloned human 5-HT7 receptor (Homo sapiens, UniProt P34969)
Construct: expressed in transfected cells
Sequence (P34969 whole entry): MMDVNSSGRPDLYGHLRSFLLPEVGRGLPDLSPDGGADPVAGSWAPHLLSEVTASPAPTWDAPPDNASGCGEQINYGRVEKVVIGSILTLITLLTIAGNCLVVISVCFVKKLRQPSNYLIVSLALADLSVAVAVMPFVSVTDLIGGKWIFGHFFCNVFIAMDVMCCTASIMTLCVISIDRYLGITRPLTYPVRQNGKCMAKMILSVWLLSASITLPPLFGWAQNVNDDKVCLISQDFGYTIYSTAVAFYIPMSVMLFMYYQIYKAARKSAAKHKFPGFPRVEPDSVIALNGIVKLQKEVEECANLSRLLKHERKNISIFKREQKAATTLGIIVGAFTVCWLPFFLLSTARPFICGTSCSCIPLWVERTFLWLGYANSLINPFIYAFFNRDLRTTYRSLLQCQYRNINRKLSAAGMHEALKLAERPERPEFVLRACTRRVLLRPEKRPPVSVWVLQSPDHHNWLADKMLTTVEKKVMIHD
assay-details: 5-HT7 receptor-binding assay ([3H]-5CT)
test-readout: pKi
Reminder that pKi is minus the log10 of a molar concentration.

compound	measured-result
O=C1Nc2cccc3c2[C@@]1(CCCCN1CC=C(c2ccccc2)CC1)CCC3 [Synthesis Example 15]	8.89

Pending compound:
Any idea what its pKi is? The compound is O=C1Nc2cccc3c2C1(CCCCN1CC=C(c2ccccc2)CC1)CCC3 (racemic) [Racemic Mixture of Synthesis Example 15, reference compound]
8.05

---

target-of-assay: cloned human 5-HT7 receptor (Homo sapiens)
Construct: expressed in transfected cells
assay-details: 5-HT7 receptor-binding assay ([3H]-5CT)
setup-conditions: Ki (5-HT2, rat cortex) / Ki (5-HT7, cloned human)
test-readout: Selectivity (ratio of Ki (5-HT2) with Ki (5-HT7))
Give your answer as a number; write no unit.

// below: answered compounds
compound	measured-result
O=C1Nc2cccc3c2[C@@]1(CCCCN1CC=C(c2ccccc2)CC1)CCC3 [Synthesis Example 15]	32
COc1ccccc1N1CCN(CCCC[C@@]23CCCc4cccc(c42)NC3=O)CC1 [Synthesis Example 14]	49
O=C1Nc2cccc3c2C1(CCCCN1CCc2ccccc2C1)CCC3 (racemic) [Racemic Mixture of Synthesis Example 18, reference compound]	79
COc1ccccc1N1CCN(CCCCC23CCCc4cccc(c42)NC3=O)CC1 (racemic) [Racemic Mixture of Synthesis Example 14, reference compound]	7
O=C1Nc2cccc3c2C1(CCCCN1CC=C(c2ccccc2)CC1)CCC3 (racemic) [Racemic Mixture of Synthesis Example 15, reference compound]	10

Pending compound:
Any idea what its Selectivity (ratio of Ki (5-HT2) with Ki (5-HT7)) is? The compound is CN(C)C(=O)n1c2c(c3ccccc31)CCN(CCCCC13CCCc4cccc(c41)NC3=O)C2 (racemic) [Racemic Mixture of Synthesis Example 17, reference compound]
121

---

target-of-assay: cloned human 5-HT7 receptor (Homo sapiens)
Construct: expressed in transfected cells
assay-details: 5-HT7 receptor-binding assay ([3H]-5CT)
setup-conditions: membranes of cultured cells expressing cloned human 5-HT7 receptor; 1 nM [3H]-5CT; 37° C., 30 minutes; Ki calculated from IC50; read-out: Receptor Binding Affinity Ki Value (5-HT7)
test-readout: pKi
Reminder that pKi is minus the log10 of a molar concentration.

// below: answered compounds
compound	pKi
O=C1Nc2cccc3c2C1(CCCCN1CCc2ccccc2C1)CCC3 (racemic) [Racemic Mixture of Synthesis Example 18, reference compound]	8.10
CN(C)C(=O)n1c2c(c3ccccc31)CCN(CCCCC13CCCc4cccc(c41)NC3=O)C2 (racemic) [Racemic Mixture of Synthesis Example 17, reference compound]	8.10
COc1ccccc1N1CCN(CCCC[C@@]23CCCc4cccc(c42)NC3=O)CC1 [Synthesis Example 14]	8.77
O=C1Nc2cccc3c2[C@@]1(CCCCN1CCc2ccccc2C1)CCC3 [Synthesis Example 18]	8.11

Any idea what its pKi is? The compound is CN(C)C(=O)n1c2c(c3ccccc31)CCN(CCCC[C@@]13CCCc4cccc(c41)NC3=O)C2 [Synthesis Example 17]
8.40

Any idea what its pKi is? The compound is CNC(=O)Cn1c2c(c3ccccc31)CCN(CCCC[C@@]13CCCc4cccc(c41)NC3=O)C2 [Synthesis Example 22]
8.82

Any idea what its pKi is? The compound is CNC(=O)Cn1c2c(c3ccccc31)CCN(CCCCC13CCCc4cccc(c41)NC3=O)C2 (racemic) [Racemic Mixture of Synthesis Example 22, reference compound]
8.44

---

target-of-assay: 5-HT2 receptor (rat cerebral cortex P2 fraction) (Rattus norvegicus)
Construct: Rat cerebral cortex was homogenized in 10 volumes of 0.32 M sucrose solution; from tissue; host or cells: rat cerebral cortex, P2 membrane fraction
Sequence (P14842 whole entry): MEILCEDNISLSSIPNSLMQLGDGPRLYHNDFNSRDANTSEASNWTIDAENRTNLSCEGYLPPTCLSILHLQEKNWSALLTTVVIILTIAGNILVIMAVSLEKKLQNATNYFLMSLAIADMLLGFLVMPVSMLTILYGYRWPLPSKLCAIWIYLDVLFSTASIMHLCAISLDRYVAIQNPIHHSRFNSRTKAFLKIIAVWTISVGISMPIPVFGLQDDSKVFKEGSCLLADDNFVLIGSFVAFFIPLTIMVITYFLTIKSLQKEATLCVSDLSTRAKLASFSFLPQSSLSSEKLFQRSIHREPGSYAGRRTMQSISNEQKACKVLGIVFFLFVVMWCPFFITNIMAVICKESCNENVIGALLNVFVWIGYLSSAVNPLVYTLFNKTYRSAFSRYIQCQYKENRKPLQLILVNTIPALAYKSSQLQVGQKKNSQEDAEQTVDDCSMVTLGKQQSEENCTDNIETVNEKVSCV
assay-details: 5-HT2 receptor-binding assay ([3H]ketanserin)
setup-conditions: rat cerebral cortex P2 fraction; 1 nM [3H]ketanserin; 37° C., 15 minutes; Ki calculated from IC50; read-out: Receptor Binding Affinity Ki Value (5-HT2)
Reported values of Ki for individual entries
Report the value in nM with no unit label.

// below: answered molecules
molecule	Ki, nM
COc1ccccc1N1CCN(CCCCC23CCCc4cccc(c42)NC3=O)CC1 (racemic) [Racemic Mixture of Synthesis Example 14, reference compound]	60
COc1ccccc1N1CCN(CCCC[C@@]23CCCc4cccc(c42)NC3=O)CC1 [Synthesis Example 14]	84
CN(C)C(=O)n1c2c(c3ccccc31)CCN(CCCCC13CCCc4cccc(c41)NC3=O)C2 (racemic) [Racemic Mixture of Synthesis Example 17, reference compound]	970

Pending molecule:
Any idea what its Ki is? The molecule is O=C1Nc2cccc3c2C1(CCCCN1CCc2ccccc2C1)CCC3 (racemic) [Racemic Mixture of Synthesis Example 18, reference compound]
628

---

target-of-assay: cloned human 5-HT7 receptor (Homo sapiens, UniProt P34969)
Construct: expressed in transfected cells
assay-details: 5-HT7 receptor-binding assay ([3H]-5CT)
setup-conditions: Ki (5-HT2, rat cortex) / Ki (5-HT7, cloned human)
Reported values of Selectivity (ratio of Ki (5-HT2) with Ki (5-HT7)) for individual entries

compound	target-of-assay	measured-result
CNC(=O)Cn1c2c(c3ccccc31)CCN(CCCCC13CCCc4cccc(c41)NC3=O)C2 (racemic) [Racemic Mixture of Synthesis Example 22, reference compound]	cloned human 5-HT7 receptor (Homo sapiens, UniProt P34969)	>278

Form: Entry = O=C1Nc2cccc3c2[C@@]1(CCCCN1CCc2ccccc2C1)CCC3 [Synthesis Example 18] | System = cloned human 5-HT7 receptor (Homo sapiens, UniProt P34969) | Selectivity (ratio of Ki (5-HT2) with Ki (5-HT7)) = ____
>125

Form: Entry = CNC(=O)Cn1c2c(c3ccccc31)CCN(CCCC[C@@]13CCCc4cccc(c41)NC3=O)C2 [Synthesis Example 22] | System = cloned human 5-HT7 receptor (Homo sapiens, UniProt P34969) | Selectivity (ratio of Ki (5-HT2) with Ki (5-HT7)) = ____
>667

Form: Entry = CN(C)C(=O)n1c2c(c3ccccc31)CCN(CCCC[C@@]13CCCc4cccc(c41)NC3=O)C2 [Synthesis Example 17] | System = cloned human 5-HT7 receptor (Homo sapiens, UniProt P34969) | Selectivity (ratio of Ki (5-HT2) with Ki (5-HT7)) = ____
>250

---

Reported values of Ki for individual entries
target-of-assay: 5-HT2 receptor (rat cerebral cortex P2 fraction) (Rattus norvegicus)
Construct: Rat cerebral cortex was homogenized in 10 volumes of 0.32 M sucrose solution; from tissue; host or cells: rat cerebral cortex, P2 membrane fraction
assay-details: 5-HT2 receptor-binding assay ([3H]ketanserin)
setup-conditions: rat cerebral cortex P2 fraction; 1 nM [3H]ketanserin; 37° C., 15 minutes; Ki calculated from IC50; read-out: Receptor Binding Affinity Ki Value (5-HT2)
Method: 5-HT2 Receptor-binding Assay Rat cerebral cortex was homogenized in 10 volumes of 0.32 M sucrose solution. The supernatant obtained by centrifuging at 900×g for 10 minutes was further centrifuged at 11,500×g for 20 minutes. The pellet was resuspended in 50 mM Tris-HCl buffer (pH 7.4) and then centrifuged at 39,900×g for 20 minutes. The final pellet was used a P2 fraction. […]

// below: answered molecules
molecule	target-of-assay	Ki
CNC(=O)Cn1c2c(c3ccccc31)CCN(CCCC[C@@]13CCCc4cccc(c41)NC3=O)C2 [Synthesis Example 22]	5-HT2 receptor (rat cerebral cortex P2 fraction) (Rattus norvegicus)	> 1 µM
CN(C)C(=O)n1c2c(c3ccccc31)CCN(CCCC[C@@]13CCCc4cccc(c41)NC3=O)C2 [Synthesis Example 17]	5-HT2 receptor (rat cerebral cortex P2 fraction) (Rattus norvegicus)	> 1 µM
CNC(=O)Cn1c2c(c3ccccc31)CCN(CCCCC13CCCc4cccc(c41)NC3=O)C2 (racemic) [Racemic Mixture of Synthesis Example 22, reference compound]	5-HT2 receptor (rat cerebral cortex P2 fraction) (Rattus norvegicus)	> 1 µM

Pending molecule:
Any idea what its Ki is? The molecule is O=C1Nc2cccc3c2[C@@]1(CCCCN1CCc2ccccc2C1)CCC3 [Synthesis Example 18]
> 1 µM
